CONDITION_NOTES: PO, 50 mg/kg, vehicle PEG400:H2O pH 2.3 60:40
This section presents compounds with their documented T1/2 values.
Field: numeric (h). Do not append units.

Worked examples, 3 compounds total:
CC(=O)c1ccc(C(=O)Nc2cccc(C(=O)c3ccc4c(/C=C/c5ccccn5)n[nH]c4c3)c2)s1 [41 (e)]    1.6
O=C(c1cccc(NC(=O)c2ccccn2)c1)c1ccc2c(/C=C/c3ccccc3)n[nH]c2c1 [19(k)]    2.2
O=C(Nc1cccc(C(=O)c2ccc3c(/C=C/c4ccccc4)n[nH]c3c2)c1)c1ccncc1 [19(j)]    1.2

# context switch: different compound, same T1/2
In: # query: T1/2 of entry Cc1ccc2cc(NC(=O)c3ccccc3Sc3ccc4c(/C=C/c5ccccn5)n[nH]c4c3)ccc2n1 [Reference Example 33(b)]
Out: 3.0

====

CONDITION_NOTES: mouse, in vivo, po, 50 mg/kg, pH 2.3
REPORTED_PROPERTY: AUCleast

O=C(Nc1cccc(Cl)c1)c1ccccc1Sc1ccc2c(/C=C/c3ccccn3)n[nH]c2c1    4.744 µg·h/mL
C=CCONC(=O)c1ccccc1Sc1ccc2c(/C=C/c3ccccn3)n[nH]c2c1    1.328 µg·h/mL
C/C=C/C(=O)Nc1cccc(C(=O)c2ccc3c(/C=C/c4ccccn4)n[nH]c3c2)c1    3.182 µg·h/mL

In: Quick one: AUCleast for `O=C(NC1CCC1)c1ccccc1Sc1ccc2c(/C=C/c3ccccn3)n[nH]c2c1` ?
Out: 4.744 µg·h/mL

====

TARGET_DESC: LCK tyrosine kinase (Homo sapiens, UniProt P06239, C224D/P223M)
Sequence (P06239 223-509 P223M/C224D): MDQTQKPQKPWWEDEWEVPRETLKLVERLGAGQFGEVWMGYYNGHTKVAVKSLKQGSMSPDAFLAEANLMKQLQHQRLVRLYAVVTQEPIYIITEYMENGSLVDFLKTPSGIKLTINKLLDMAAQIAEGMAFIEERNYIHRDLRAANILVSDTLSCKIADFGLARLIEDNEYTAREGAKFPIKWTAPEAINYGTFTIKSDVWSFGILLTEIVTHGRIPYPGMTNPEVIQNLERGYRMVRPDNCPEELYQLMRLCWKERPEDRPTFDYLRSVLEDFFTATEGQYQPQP
TEST_METHOD_NOTES: LCK spectrophotometric assay
Format: biochemical
CONDITION_NOTES: Table 1; compound concentration 1 µM; read-out: Lck-P* (% inhibition)
# inhibition at 1 µM per entry
Write it as a number; the unit % goes unstated.

O=C(Nc1cccc(C(=O)c2ccc3c(/C=C/c4ccccn4)n[nH]c3c2)c1)c1ccncc1 [Reference Example 41(b)]    24
O=C(Nc1cccc(Oc2ccc3c(/C=C/c4ccccc4)n[nH]c3c2)c1)c1ccccc1    68
CCc1cc(C(=O)Nc2cc(C(=O)c3ccc4c(/C=C/c5ccccn5)n[nH]c4c3)ccc2C)n(C)n1 [Reference Example 41(jj)]    19

Now consider a different compound.
In: Quick one: inhibition at 1 µM of `Cc1cnc(C(=O)Nc2cccc(C(=O)c3ccc4c(/C=C/c5ccccc5)n[nH]c4c3)c2)s1` ?
Out: 33

====

TEST_METHOD_NOTES: in vitro
Type: in vitro ADME, human
CONDITION_NOTES: human, microsomes, 2 h, 5 µM
Short version: % remain (HLM, 2 h) at least 70% is satisfied, less is not satisfied.

Solved entries:
CNC(=O)c1ccccc1Sc1ccc2c(/C=C/c3ccccn3)n[nH]c2c1 [Reference Example 33(a)]    not satisfied
O=C(Nc1cccc(C(=O)c2ccc3c(/C=N/n4cccc4)n[nH]c3c2)c1)c1ccccc1 [Example 45(b)]    satisfied
CCn1nc(C)cc1C(=O)Nc1cc(C(=O)c2ccc3c(/C=C/c4ccccn4)n[nH]c3c2)c(C)cc1C [41(11)]    satisfied
C#CCNC(=O)c1ccccc1Nc1ccc2c(/C=C/c3ccccn3)n[nH]c2c1 [Example 39(b)]    not satisfied

In: Please check the record O=C(c1cccc(NC(=O)c2ccccn2)c1)c1ccc2c(/C=C/c3ccccn3)n[nH]c2c1 [41 (aa)] and state if its % remain (HLM, 2 h) is at or above 70%.
Out: satisfied

====

TARGET_DESC: LCK tyrosine kinase (Homo sapiens, UniProt P06239, C224D/P223M)
TEST_METHOD_NOTES: LCK spectrophotometric assay
Type: biochemical
CONDITION_NOTES: Table 1; compound concentration 1 µM; read-out: Lck-P* (% inhibition)
REPORTED_PROPERTY: inhibition at 1 µM (%)
Field: numeric (%). Do not append units.

CC(=O)Nc1cc(C(=O)c2ccc3c(/C=C/c4ccccn4)n[nH]c3c2)c(C)cc1C [Reference Example 41(nn)]    7

In: Consider the compound shown here: `Cc1cccc(C(=O)Nc2cccc(Oc3ccc4c(/C=C/c5ccccc5)n[nH]c4c3)c2)c1` What is its recorded inhibition at 1 µM?
Out: 78

In: Consider next the compound CCCn1nc(C)cc1C(=O)Nc1cccc(C(=O)c2ccc3c(/C=C/c4ccccn4)n[nH]c3c2)c1 [Reference Example 41(r)] in the same way.
Out: 55

====

TARGET_DESC: human FGF-R1 (Homo sapiens, UniProt P11362, C488A/C584S/L457V)
Sequence (P11362 456-766 L457V/C488A/C584S): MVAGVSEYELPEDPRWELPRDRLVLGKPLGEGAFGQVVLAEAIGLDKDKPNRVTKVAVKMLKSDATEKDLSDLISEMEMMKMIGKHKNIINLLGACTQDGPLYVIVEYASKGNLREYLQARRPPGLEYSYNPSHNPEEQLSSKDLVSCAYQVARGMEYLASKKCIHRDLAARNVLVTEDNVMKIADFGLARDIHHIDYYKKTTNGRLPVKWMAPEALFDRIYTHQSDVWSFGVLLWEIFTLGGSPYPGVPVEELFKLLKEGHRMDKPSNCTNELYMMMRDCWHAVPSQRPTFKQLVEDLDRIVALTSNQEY
TEST_METHOD_NOTES: FGF-R spectrophotometric assay
Assay type: biochemical
CONDITION_NOTES: Table 1; compound concentration 1 µM; read-out: FGF-P* (% inhibition)
Listed here are compounds together with their documented inhibition at 1 µM.
Report only the number, with the unit % understood.

Cc1ccccc1C(=O)NNC(=O)c1ccccc1Sc1ccc2c(/C=C/c3ccccn3)n[nH]c2c1 [Reference Example 35(q)]    51
O=C(Cc1ccccn1)Nc1cccc(C(=O)c2ccc3c(/C=C/c4ccccc4)n[nH]c3c2)c1    59
O=C(c1cccc(NC(=O)c2cccc(Cl)n2)c1)c1ccc2c(/C=C/c3ccccc3)n[nH]c2c1    23
O=C(Nc1cccc(C(=O)c2ccc3c(/C=C/c4ccccn4)n[nH]c3c2)c1)c1ccncc1 [Reference Example 41(b)]    31
CN(c1cccc(NC(=O)c2cccc(C(F)(F)F)c2)c1)c1ccc2c(/C=C/c3ccc4c(c3)OCO4)n[nH]c2c1    90
C#CCNC(=O)c1ccccc1Sc1ccc2c(/C=C/c3ccccn3)n[nH]c2c1 [Reference Example 35(cc)]    74

Now let's try a different one.
In: So what does the record say about inhibition at 1 µM for Cc1ccc2cc(NC(=O)c3ccccc3Sc3ccc4c(/C=C/c5ccccc5)n[nH]c4c3)ccc2n1 [Reference Example 38(a)] ?
Out: 74

====

TARGET_DESC: unphosphorylated VEGF-R2Δ50 (Homo sapiens, UniProt P35968, DEL940-989/E990V)
Sequence (P35968 with tags, fused parts or gaps DEL940-989/E990V limits assumed): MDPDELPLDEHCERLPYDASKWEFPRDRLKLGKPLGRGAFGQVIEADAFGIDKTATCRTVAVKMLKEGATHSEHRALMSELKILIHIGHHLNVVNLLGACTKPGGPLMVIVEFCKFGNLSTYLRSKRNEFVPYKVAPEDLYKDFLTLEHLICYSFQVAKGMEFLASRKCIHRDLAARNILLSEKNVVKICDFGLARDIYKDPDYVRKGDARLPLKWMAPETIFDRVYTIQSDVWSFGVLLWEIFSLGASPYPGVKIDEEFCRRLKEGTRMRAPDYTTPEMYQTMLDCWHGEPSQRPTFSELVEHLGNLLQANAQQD
TEST_METHOD_NOTES: biochemical
CONDITION_NOTES: read-out: FLVK ** (% inhibition)
Measured inhibition at 0.05 µM accompanies every entry in the list below.
Answer in %, number only, no unit symbol.

Worked cases, inhibition at 0.05 µM given:
O=C(NC1CCC1)c1ccccc1Sc1ccc2c(/C=C/c3ccccn3)n[nH]c2c1 [Reference Example 35(c)]    76
Cc1cc(C(=O)Nc2cc(C(=O)c3ccc4c(/C=C/c5ccccn5)n[nH]c4c3)c(C)cc2C)n(C)n1    93
O=C(N/N=C/c1ccccn1)c1ccccc1Sc1ccc2c(/C=C/c3ccccn3)n[nH]c2c1 [Reference Example 36(b)]    85

Switching to the query record.
In: Which value of inhibition at 0.05 µM has been reported for O=C(N[C@@H]1C[C@H]1c1ccccc1)c1ccccc1Sc1ccc2c(/C=C/c3ccccn3)n[nH]c2c1 (racemic) [Reference Example 34] in the records?
Out: 97

====

TARGET_DESC: human FGF-R1 (Homo sapiens, UniProt P11362, C488A/C584S/L457V)
TEST_METHOD_NOTES: FGF-R spectrophotometric assay
Assay type: biochemical
CONDITION_NOTES: Table 1; compound concentration 1 µM; read-out: FGF-P* (% inhibition)
REPORTED_PROPERTY: inhibition at 1 µM (%)
Your answer is read as %, so omit the unit and give the number.

In: Fill in the blank: the reported inhibition at 1 µM of `Cc1cccc(C(=O)Nc2cccc(Oc3ccc4c(-c5cc6ccccc6[nH]5)n[nH]c4c3)c2)c1` is ____.
Out: 95

In: What about this molecule? CNC(=O)c1cccc(F)c1Sc1ccc2c(/C=C/c3ccccn3)n[nH]c2c1 [Reference Example 37(d)]
Out: 38

In: Cool, now Cn1cccc1C(=O)NNC(=O)c1ccccc1Sc1ccc2c(/C=C/c3ccccn3)n[nH]c2c1 [Reference Example 35(e)]
Out: 69

In: Same read-out for O=C(N[C@@H]1C[C@H]1c1ccccc1)c1ccccc1Sc1ccc2c(/C=C/c3ccccn3)n[nH]c2c1 (racemic) [Reference Example 34] ?
Out: 95

====

CONDITION_NOTES: mouse, in vivo, po, 25 mg/kg, pH 2.3
# key: entry, value: AUCleast
Write the value in ng·h/mL as a bare number.

Field: example entries. Status: answers known.
O=C(NCCc1cccs1)c1ccccc1Sc1ccc2c(/C=C/c3ccccn3)n[nH]c2c1 [35 (hh)]    292
Cc1cc(C(=O)Nc2cc(C(=O)c3ccc4c(/C=C/c5ccccn5)n[nH]c4c3)ccc2C)n(C(C)C)n1 [41 (kk)]    11612
CCn1nc(C)cc1C(=O)Nc1cc(Nc2ccc3c(/C=C/c4ccccn4)n[nH]c3c2)c(F)cc1C [48 (a)]    26636
Cc1cc(C(=O)Nc2cc(Nc3ccc4c(/C=C/c5ccccn5)n[nH]c4c3)ccc2F)n(C)n1 [49 (a)]    712
O=C(NNC(=O)c1ccccc1Sc1ccc2c(/C=C/c3ccccn3)n[nH]c2c1)c1cccs1 [35 (m)]    10

In: Consider the molecule shown here: Cc1cc(C(=O)Nc2cc(Nc3ccc4c(/C=C/c5ccccn5)n[nH]c4c3)c(F)cc2C)n(C)n1 [48 (b)] What is its recorded AUCleast?
Out: 2191
